Test system: LXFL 529 NSCLC
Assay: NCI tumour cell line growth inhibition, 48 h
Here, each record is paired with measured TGI data.

molecule=Cc1nc2c(nc1C)C(=O)C1=C(C2=O)C2C=CC1CC2 assayed_system="LXFL 529 NSCLC" property=TGI reported="3.19 µM"

Now examine the next entry.
TGI for O=C1OC(CC(=O)c2ccc(Cl)cc2)C(Cl)=C1Cl (configuration not stated) ? > 100 µM

* * *

Test system: NCI-H460 lung
Assay: NCI tumour cell line growth inhibition, 48 h
Use 20 µM as the dividing line for TGI, with the line itself on the True side and lower values as False.

Below, 5 molecules whose answers are already recorded.
molecule=Oc1cc(Cn2cnc3c(Cl)nc(Cl)nc32)ccc1C12CC3CC(CC(C3)C1)C2 label=True
molecule=Cc1cc(NS(=O)(=O)c2ccc(NC(=O)c3ccc(Cl)c4c(Nc5ccc(S(N)(=O)=O)cc5)c5ccccc5nc34)cc2)no1 label=True
molecule="Cc1cc(-c2ccc(C3C(C#N)=C(N)Oc4c3c(=O)oc3ccccc43)cc2)cnc1F (centres undefined)" label=True
molecule=Cc1cnc(NC2CCOCC2)nc1-n1cnc(C(=O)N[C@H](CN)c2cc(F)cc(Cl)c2)c1 label=False
molecule="COc1ccc(N2C(=O)C3c4[nH]c5c(C)cccc5c4C4CCC(c5ccccc5)CC4C3C2=O)cc1 (centres undefined)" label=False

Please indicate if the recorded TGI for "CNC[C@@H](NC(=O)c1ccc(-c2nc([C@H]3CC[C@H](O)[C@@H](F)C3)cnc2N)cc1F)c1cc(F)cc(Br)c1" meets or exceeds 20 µM. True

Please indicate if the recorded TGI for C=Cc1ccccc1C1C(C(=O)OCC)=C(C)N=C2OC(C(=O)OC)C(=O)N21 (centres undefined) meets or exceeds 20 µM. True

Please indicate if the recorded TGI for "CCCCCCCCCCCCCC(=S)N/C=C/OC" meets or exceeds 20 µM. True

Please indicate if the recorded TGI for "COc1cc(/C=C\c2cc(/C=C\c3ccc(O)c(OC)c3)n(C(=O)COc3ccccc3)n2)ccc1O" meets or exceeds 20 µM. False

* * *

Test system: OVCAR-3 ovarian
Test: NCI tumour cell line growth inhibition, 48 h
PROPERTY: TGI

Worked set:
molecule=COc1c(O)ccc(C2=Cc3ccc(O)cc3OC2)c1OC reported="34 µM"
molecule=CC(C)CNC(=O)c1ccc(NC(=O)N(CC(C)C)C(=O)c2ccc(N)c(OCCCN)c2)c(OCCCN=C(N)N)c1 reported="> 62.5 µM"
molecule="CCN(CC)CCN1CCc2c([nH]c3ccccc23)C1c1cccnc1 (stereo not given)" reported="> 100 µM"

Now examine the next entry.
TGI for CC(=O)OCC1OC(n2c(-c3ccc(Cl)cc3)cc(-c3ccccc3)c(C#N)c2=S)C(OC(C)=O)C(OC(C)=O)C1OC(C)=O (stereo not given) ? 22.4 µM

* * *

Test system: UACC-62 melanoma
Assay: NCI tumour cell line growth inhibition, 48 h
Here, each record is paired with measured TGI data.

Worked set:
molecule="Cc1cn(C2OC(CO)C(O)C2O)c(=O)[nH]c1=O (centres undefined)" property=TGI reported="> 1000 µM"
molecule=Clc1ccc(Cc2nc3cc(Cl)ccc3o2)cc1 property=TGI reported="> 100 µM"
molecule="NC(CCCNCc1ccccc1)C(=O)O (centres undefined)" property=TGI reported="> 100 µM"

TGI for "CS(=O)(=O)c1ccc(NNc2cc(=O)[nH]c(=O)[nH]2)cc1" ? > 100 µM
